# assay target: SHP2-C SH2;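 also: peptide library displayed on the E. coli surface as eCPX fusions, selected cells deep-sequenced, score is each peptide's frequency after selection divided by its frequency in the input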
# test name: SH2 binding enrichment of the phosphorylated peptide, bacterial display (enrichment ratio); higher = better substrate or ligand; peptides without Tyr show the background
test readout: SH2 binding enrichment

Recorded results for 3 sequences are shown here.
SSPVPYLSPET [TJP1_Y931] = 0.66
EWCSPYGLTPR [GRIN3B_Y601_R598C] = 0.629
KVGNEYVTKGQ [MYH7_Y410] = 0.676

P: QMVDMYASSFM [AVPR2_Y124_G122D_YF]
Q: DDPRRYQKYGY [OAS1_Y362]
[Q] Lower value for measured SH2 binding enrichment? Options: P , Q Answer with the label corresponding to your selection.
[A] P

1: ESSKAYERALS [TTC37_Y1074]
2: LRWREYQRQDF [PRKRIP1_Y90_R87W_YF]
[Q] So which one has the bigger SH2 binding enrichment here, 1 or 2 ? Answer with the label corresponding to your selection.
[A] 2
